The next entries give measured MIC for Enterococcus faecalis ATCC 29212.

Request: Query: MIC; subject: CCCCCCCCCCCCNC1C[N+]2(CCC[N+]34CCC(CC3)C(NCCCCCCCCCCCC)C4)CCC1CC2 (racemic)
Response: > 75 µM

Request: If you can, please state the reported MIC value of O=C1C[N+]2(CCCCCC[N+]34CCC(CC3)C(=O)C4)CCC1CC2 .
Response: > 75 µM

Request: Consider the compound shown here: CCCCCCCCCCCCCCCCNC1C[N+]2(CCC[N+]34CCC(CC3)C(NCCCCCCCCCCCCCCCC)C4)CCC1CC2 (racemic) What is its recorded MIC?
Response: > 75 µM

Request: So what does the record say about MIC for CCCCCCCCCCCCCCNC1C[N+]2(CCC[N+]34CCC(CC3)C(NCCCCCCCCCCCCCC)C4)CCC1CC2 (racemic) ?
Response: > 75 µM

Request: // lookup MIC for CCCCCCCCCCCCCCCCNC1C[N+]2(CCCC[N+]34CCC(CC3)C(NCCCCCCCCCCCCCCCC)C4)CCC1CC2 (racemic)
Response: 38 µM

Request: GET /values?readout=MIC&item= CCCCCCCCCCCCNC1C[N+]2(CCCCCC[N+]34CCC(CC3)C(NCCCCCCCCCCCC)C4)CCC1CC2 (racemic)
Response: 75 µM

Request: Reported MIC for O=C1C[N+]2(CCCC[N+]34CCC(CC3)C(=O)C4)CCC1CC2 : what is it?
Response: > 75 µM

====

System: Salmonella enterica (food isolate)
assay.details: Broth microdilution MIC
Format: cell-based
applied.conditions: read-out: Minimum Inhibitory Concentrations (MIC)
recorded.endpoint: MIC (µM)
State the answer as a number, implicitly in µM.

Request: Which MIC value is on record for CCCCCCCCCCCC[N+](C)(C)Cc1ccccc1.[Br-] [BAB, benzyldodecyldimethylammonium bromide, reference compound] ?
Response: 50

Request: Bench note: what MIC did CCCCCCCCCCCCCCCCNC1C[N+]2(CCCC[N+]34CCC(CC3)C(NCCCCCCCCCCCCCCCC)C4)CCC1CC2 (racemic) show?
Response: 75

====

System: Salmonella enterica (food isolate)
assay.details: Broth microdilution MIC
Format: cell-based
applied.conditions: read-out: Minimum Inhibitory Concentrations (MIC)
recorded.endpoint: MIC

Request: MIC for O=C1C[N+]2(CCC[N+]34CCC(CC3)C(=O)C4)CCC1CC2 [2(QO)3] ?
Response: > 75 µM

Request: What does the record list as MIC for CCCCCCCCCCCCNC1C[N+]2(CCCC[N+]34CCC(CC3)C(NCCCCCCCCCCCC)C4)CCC1CC2 (racemic) [2(QC12)4] ?
Response: > 75 µM

Request: Fill in the blank: the reported MIC of CCCCCCCCCCCCCCCCNC1C[N+]2(CCCCCC[N+]34CCC(CC3)C(NCCCCCCCCCCCCCCCC)C4)CCC1CC2 (racemic) [2(QC16)6] is ____.
Response: 75 µM

====

Test system: Salmonella enterica (food isolate)
assay.details: Broth microdilution MIC
Type: cell-based
applied.conditions: read-out: Minimum Inhibitory Concentrations (MIC)
recorded.endpoint: MIC

Request: Recorded MIC of CCCCCCCCCCCCNC1C[N+]2(CCC[N+]34CCC(CC3)C(NCCCCCCCCCCCC)C4)CCC1CC2 (racemic) , please.
Response: 75 µM

Request: Can you look up the measured MIC of CCCCCCCCCCCCCCNC1C[N+]2(CCC[N+]34CCC(CC3)C(NCCCCCCCCCCCCCC)C4)CCC1CC2 (racemic) for me?
Response: > 75 µM

Request: Give the measured MIC of O=C1C[N+]2(CCCC[N+]34CCC(CC3)C(=O)C4)CCC1CC2 .
Response: > 75 µM

Request: Field request: MIC | item: O=C1C[N+]2(CCCCCC[N+]34CCC(CC3)C(=O)C4)CCC1CC2
Response: > 75 µM

Request: Find the recorded MIC belonging to CCCCCCCCCCCCCCNC1C[N+]2(CCCCCC[N+]34CCC(CC3)C(NCCCCCCCCCCCCCC)C4)CCC1CC2 (racemic) and report it.
Response: 75 µM

Request: # query: MIC of entry CCCCCCCCCCCCCCNC1C[N+]2(CCCC[N+]34CCC(CC3)C(NCCCCCCCCCCCCCC)C4)CCC1CC2 (racemic)
Response: > 75 µM

Request: I'd like to know its MIC. The molecule in question is CCCCCCCCCCCCCCCCNC1C[N+]2(CCC[N+]34CCC(CC3)C(NCCCCCCCCCCCCCCCC)C4)CCC1CC2 (racemic)
Response: > 75 µM
